- Test system: xpt-G17 riboswitch
- assay.method.text: Luciferase reporter assay, xpt-G17 riboswitch, transfected HEK 293 cells
- Assay type: cell-based
- recorded.conditions: Homo sapiens, HEK293, xpt-G17 riboswitch; Prestwick library compounds at 100 μM; HEK 293; preliminary screen
Counter-ions that a name gives are not always drawn.
Rule: fold induction at 100 µM of 8 or more gives Criterion met; anything lower gives Criterion not met.

Hi team, for CN1CCC(=C2c3ccccc3Sc3ccccc32)CC1 [Pimethixene maleate] , is the recorded fold induction at 100 µM at or above 8?
Criterion not met

Hi team, for `Cn1cnc([N+](=O)[O-])c1Sc1ncnc2nc[nH]c12` , is the recorded fold induction at 100 µM at or above 8?
Criterion not met

Hi team, for CCC(=O)O[C@H]1CC[C@H]2[C@@H]3CCC4=CC(=O)CC[C@]4(C)[C@H]3CC[C@]12C [Testosterone propionate] , is the recorded fold induction at 100 µM at or above 8?
Criterion met

Hi team, for `CC(=O)[C@H]1CC[C@H]2[C@@H]3CCC4=CC(=O)CC[C@]4(C)[C@H]3CC[C@]12C` , is the recorded fold induction at 100 µM at or above 8?
Criterion met

Hi team, for `Clc1cc(Cl)c(OCC#CI)cc1Cl` , is the recorded fold induction at 100 µM at or above 8?
Criterion not met

Hi team, for CN(C)CCOC1=Cc2ccccc2Sc2ccc(Cl)cc21 [Zotepine] , is the recorded fold induction at 100 µM at or above 8?
Criterion not met

Hi team, for COc1ccc2[nH]c([S+]([O-])Cc3ncc(C)c(OC)c3C)nc2n1 (stereo not shown) , is the recorded fold induction at 100 µM at or above 8?
Criterion not met

Hi team, for O=C(OCCOCCO)c1ccccc1Nc1cccc(C(F)(F)F)c1 [Etofenamate] , is the recorded fold induction at 100 µM at or above 8?
Criterion not met

Hi team, for Nc1ncnc2c1ncn2[C@@H]1O[C@H](COP(=O)(O)O)[C@@H](O)[C@H]1O.O [Adenosine 5′-monophosphate monohydrate] , is the recorded fold induction at 100 µM at or above 8?
Criterion met
